Details: s9, 60 min, 1 μM
Documented Human Liver S9 Metabolic Stability (% remaining) across a set of molecules
Number only, in % remaining; omit the unit.

Return reported Human Liver S9 Metabolic Stability (% remaining); argument: COc1c(C)cc2c(c1O)[C@@H]1C3[C@@H]4SC[C@]5(NCCc6c5[nH]c5ccc(F)cc65)C(=O)COC[C@@H](c5c6c(c(C)c(OC(C)=O)c54)OCO6)N3[C@@H](O)[C@H](C2)N1C (stereo partly drawn)
4

Then this molecule: COc1ccc2[nH]c3c(c2c1)CCN[C@]31CS[C@@H]2c3c(OC(C)=O)c(C)c4c(c3[C@H](COCC1=O)N1C2[C@H]2c3c(cc(C)c(OC)c3O)C[C@@H]([C@@H]1O)N2C)OCO4 (stereo partly drawn)
7

Another molecule to check: C=COC(=O)Oc1c(OC)c(C)cc2c1[C@@H]1C3[C@@H]4SC[C@]5(NCCc6c5[nH]c5ccccc65)C(=O)COC[C@@H](c5c6c(c(C)c(OC(C)=O)c54)OCO6)N3[C@@H](O)[C@H](C2)N1C (stereo partly drawn)
5

Next molecule up: COc1c(C)cc2c(c1O)[C@@H]1C3[C@@H]4SC[C@]5(NCCc6c5[nH]c5c(C)cccc65)C(=O)COC[C@@H](c5c6c(c(C)c(OC(C)=O)c54)OCO6)N3[C@@H](O)[C@H](C2)N1C (stereo partly drawn)
2

Could you do the same for COc1c(C)cc2c(c1O)[C@@H]1C3[C@@H]4SC[C@]5(C(=O)COC[C@@H](c6c7c(c(C)c(OC(C)=O)c64)OCO7)N3[C@@H](O)[C@H](C2)N1C)c1[nH]c2ccc(O)cc2c1CCN5C (stereo partly drawn) , please?
10

* * *

Reported CC50 values for a set of compounds
System: SW-620
Test: cells
Format: cell-based
Settings: Homo sapiens, SW-620, 48 h, read-out: LC50
Form entry: enter the amount, then its unit.

Answered examples (3):
| compound | targetEntity | CC50 |
| --- | --- | --- |
| COc1ccc2c3c([nH]c2c1)[C@@]1(CS[C@@H]2c4c(OC(C)=O)c(C)c5c(c4[C@H](COCC1=O)N1C2[C@H]2c4c(cc(C)c(OC)c4O)C[C@@H]([C@@H]1O)N2C)OCO5)NCC3 (stereo partly shown) [Compound 34] | SW-620 | 102 nM |
| COc1c(C)cc2c(c1O)[C@@H]1C3[C@@H]4SC[C@]5(NCCc6c5[nH]c5ccc(OCc7ccccc7)cc65)C(=O)COC[C@@H](c5c6c(c(C)c(OC(C)=O)c54)OCO6)N3[C@@H](O)[C@H](C2)N1C (stereo partly shown) [Compound 29] | SW-620 | 105 nM |
| COc1c(C)cc2c(c1O)[C@@H]1C3[C@@H]4SC[C@]5(NCCc6c5[nH]c5ccc(O)cc65)C(=O)COC[C@@H](c5c6c(c(C)c(OC(C)=O)c54)OCO6)N3[C@@H](O)[C@H](C2)N1C (stereo partly shown) [Compound 31] | SW-620 | 11.7 nM |

Value lookup for CC50; key = COc1c(C)cc2c(c1O)[C@@H]1C3[C@@H]4SC[C@]5(NCCc6c5[nH]c5ccccc65)C(=O)COC[C@@H](c5c6c(c(C)c(OC(=O)C(F)(F)C(F)(F)C(F)(F)F)c54)OCO6)N3[C@@H](O)[C@H](C2)N1C (stereo partly shown) [Compound 62]
110 nM

And then COc1c(C)cc2c(c1O)[C@@H]1C3[C@@H]4SC[C@]5(NCCc6c5[nH]c5ccc(C)cc65)C(=O)COC[C@@H](c5c6c(c(C)c(OC(C)=O)c54)OCO6)N3[C@@H](O)[C@H](C2)N1C (stereo partly shown) [Compound 30] , what is it?
1.3 nM

Now this one: COc1c(C)cc2c(c1O)[C@@H]1C3[C@@H]4SC[C@]5(NCCc6c5[nH]c5c(OCc7ccccc7)cccc65)C(=O)COC[C@@H](c5c6c(c(C)c(OC(C)=O)c54)OCO6)N3[C@@H](O)[C@H](C2)N1C (stereo partly shown) [Compound 28]
92.9 nM

Record: COc1c(C)cc2c(c1O)[C@@H]1C3[C@@H]4SC[C@]5(NCCc6c5[nH]c5ccccc65)C(=O)COC[C@@H](c5c6c(c(C)c(OC(C)=O)c54)OCO6)N3[C@@H](O)[C@H](C2)N1C (stereo partly shown) [Compound 26]
79.5 nM

Next entry: COc1c(C)cc2c(c1O)[C@@H]1C3[C@@H]4SC[C@]5(NCCc6c5[nH]c5cc(F)ccc65)C(=O)COC[C@@H](c5c6c(c(C)c(OC(C)=O)c54)OCO6)N3[C@@H](O)[C@H](C2)N1C (stereo partly shown) [Compound 32]
129 nM

Subsequent entry: COc1c(C)cc2c(c1O)[C@@H]1C3[C@@H]4SC[C@]5(C(=O)COC[C@@H](c6c7c(c(C)c(OC(C)=O)c64)OCO7)N3[C@@H](O)[C@H](C2)N1C)c1[nH]c2ccc(O)cc2c1CCN5C (stereo partly shown) [Compound 33]
10.2 nM

Another compound to check: COc1ccc2[nH]c3c(c2c1)CCN[C@]31CS[C@@H]2c3c(OC(C)=O)c(C)c4c(c3[C@H](COCC1=O)N1C2[C@H]2c3c(cc(C)c(OC)c3O)C[C@@H]([C@@H]1O)N2C)OCO4 (stereo partly shown) [Compound 27]
1.15 nM

* * *

GI50 values for the compounds below.
System: IGROV
Experiment: cells
Format: cell-based
Details: Homo sapiens, 48 h, 48 hours exposure, SRB

Example entries begin here.
| compound | targetEntity | assayResult |
| --- | --- | --- |
| COc1c(C)cc2c(c1O)[C@@H]1C3[C@@H]4SC[C@]5(NCCc6c5[nH]c5c(C)cccc65)C(=O)COC[C@@H](c5c6c(c(C)c(OC(C)=O)c54)OCO6)N3[C@@H](O)[C@H](C2)N1C (stereo partly shown) [Compound 36] | IGROV | 0.00372 µM |
| COc1c(C)cc2c(c1O)[C@@H]1C3[C@@H]4SC[C@]5(NCCc6c5[nH]c5ccccc65)C(=O)COC[C@@H](c5c6c(c(C)c(OC(=O)C(F)(F)C(F)(F)C(F)(F)F)c54)OCO6)N3[C@@H](C#N)[C@H](C2)N1C (stereo partly shown) [Compound 51] | IGROV | 0.0323 µM |
| COc1c(C)cc2c(c1O)[C@@H]1C3[C@@H]4SC[C@]5(NCCc6c5[nH]c5ccccc65)C(=O)COC[C@@H](c5c6c(c(C)c(OC(=O)OC(C)(C)C)c54)OCO6)N3[C@@H](C#N)[C@H](C2)N1C (stereo partly shown) [Compound 57] | IGROV | 0.0718 µM |

Consider the record given below.
What does the record list as GI50 for COc1c(C)cc2c(c1O)[C@@H]1C3[C@@H]4SC[C@]5(NCCc6c5[nH]c5ccc(F)cc65)C(=O)COC[C@@H](c5c6c(c(C)c(OC(C)=O)c54)OCO6)N3[C@@H](O)[C@H](C2)N1C (stereo partly shown) [Compound 35] ?
0.00345 µM

* * *

System: NRK-52E, normal rat kidney cells
Details: 24 h
readoutName: Kidney
The response must contain the number and no unit.

| molecule | Kidney |
| --- | --- |
| COc1c(C)cc2c(c1O)[C@@H]1C3[C@@H]4SC[C@]5(NCCc6c5[nH]c5cc(F)ccc65)C(=O)COC[C@@H](c5c6c(c(C)c(OC(C)=O)c54)OCO6)N3[C@@H](O)[C@H](C2)N1C (stereo partly drawn) | 1.45E−07 |
| COc1ccc2[nH]c3c(c2c1)CCN[C@]31CS[C@@H]2c3c(OC(C)=O)c(C)c4c(c3[C@H](COCC1=O)N1C2[C@H]2c3c(cc(C)c(OC)c3O)C[C@@H]([C@@H]1O)N2C)OCO4 (stereo partly drawn) | 1.01E−08 |

Param item = COc1c(C)cc2c(c1O)[C@@H]1C3[C@@H]4SC[C@]5(NCCc6c5[nH]c5ccc(F)cc65)C(=O)COC[C@@H](c5c6c(c(C)c(OC(C)=O)c54)OCO6)N3[C@@H](O)[C@H](C2)N1C (stereo partly drawn) ; retrieve measured Kidney.
3.42E−08

* * *

Tested on: MEL-28
Experiment: cells
Assay type: cell-based
Settings: read-out: LC50; MEL-28, 48 hours exposure, SRB
Reported log10(CC50) values are given for each entry in this list.
Please keep in mind that the values are log10 of CC50 expressed in nM.

| molecule | assayResult |
| --- | --- |
| COc1c(C)cc2c(c1O)[C@@H]1C3[C@@H]4SC[C@]5(NC(C)Cc6c5[nH]c5ccc(O)cc65)C(=O)COC[C@@H](c5c6c(c(C)c(OC(C)=O)c54)OCO6)N3[C@@H](O)[C@H](C2)N1C (some centres unmarked) [Compound 37] | 1.53 |
| COc1c(C)cc2c(c1O)[C@@H]1C3[C@@H]4SC[C@]5(C(=O)COC[C@@H](c6c7c(c(C)c(OC(C)=O)c64)OCO7)N3[C@@H](O)[C@H](C2)N1C)c1[nH]c2ccccc2c1CCN5C (some centres unmarked) [Compound 40] | 2.05 |
| COc1c(C)cc2c(c1O)[C@@H]1C3[C@@H]4SC[C@]5(NC(C)Cc6c5[nH]c5ccc(F)cc65)C(=O)COC[C@@H](c5c6c(c(C)c(OC(C)=O)c54)OCO6)N3[C@@H](O)[C@H](C2)N1C (some centres unmarked) [Compound 42] | 0.79 |

State the recorded log10(CC50) for this entry: COc1c(C)cc2c(c1O)[C@@H]1C3[C@@H]4SC[C@]5(NC(C)Cc6c5[nH]c5ccc(F)cc65)C(=O)COC[C@@H](c5c6c(c(C)c(OC(C)=O)c54)OCO6)N3[C@@H](O)[C@H](C2)N1C (some centres unmarked) [Compound 41]
2.01

Subsequent entry: COc1c(C)cc2c(c1O)[C@@H]1C3[C@@H]4SC[C@]5(NC(C)Cc6c5[nH]c5ccc(O)cc65)C(=O)COC[C@@H](c5c6c(c(C)c(OC(C)=O)c54)OCO6)N3[C@@H](O)[C@H](C2)N1C (some centres unmarked) [Compound 38]
1.02
